Attribution: PubChem BioAssay (NCI)

system: RPMI-8226 leukemia; assay: NCI-60 one-dose screen, 48 h (100 = growth as untreated, 0 = no growth, -100 = all killed); conditions: 10 µM unless noted
This is part of a sample that, as a whole, favours compounds with a hit. Of some 83,000 tested, about 20% had one in any assay.
I'd appreciate it if you marked entries class 1 when growth is lower than 20% and class 0 when it is not.

growth under 20%? Item: `COc1cc2c(/C=C3\C(=O)Nc4ccccc43)c(C(=O)O)[nH]c2cc1C`
class 0

growth under 20%? Item: CC1O[C@@H]2C[C@@](O)([C@H]1O)n1c3ccccc3c3c4c(c5c6ccccc6n2c5c31)C(=O)NC4=O (some centres undefined)
class 0

growth under 20%? Item: `O=C1/C(=C/c2ccc(Br)cc2)COc2ccc(O)c(O)c21`
class 1

growth under 20%? Item: `O=C(Nc1nc(C(=O)N2CCN(C(c3ccccc3)c3ccccc3)CC2)cs1)c1ccc(NC2CCCCC2)c([N+](=O)[O-])c1`
class 0

growth under 20%? Item: `CNC(=O)c1c(NC(=O)c2ccc(C(C)(C)C)cc2)sc2c(CN(C)C)c(O)ccc12`
class 1

growth under 20%? Item: `Cc1ccc(Nc2nc(-c3ccc(F)cc3)c(C#N)c(=O)n2C)cc1`
class 0

growth under 20%? Item: `COc1cc(/C=C\c2cc(/C=C\c3ccc(O)c(OC)c3)n(C(=O)CNc3ccc(Cl)cc3)n2)ccc1O`
class 1

growth under 20%? Item: `O=C(O)c1cccc(N/C=C/C(=O)c2cc3cc(Br)ccc3oc2=O)c1`
class 0

growth under 20%? Item: `Cn1cc(-c2nonc2-c2c[nH]c3ccc(F)cc23)c2cc(Br)ccc21`
class 0
